Kindly state Affinity ELISA CPE mutant ratio (1:3, pH 6.0/7.4) for each of the entries shown.
Biological target: Axl (UniProt P30530)
Sequence (P30530 26-451 limits assumed): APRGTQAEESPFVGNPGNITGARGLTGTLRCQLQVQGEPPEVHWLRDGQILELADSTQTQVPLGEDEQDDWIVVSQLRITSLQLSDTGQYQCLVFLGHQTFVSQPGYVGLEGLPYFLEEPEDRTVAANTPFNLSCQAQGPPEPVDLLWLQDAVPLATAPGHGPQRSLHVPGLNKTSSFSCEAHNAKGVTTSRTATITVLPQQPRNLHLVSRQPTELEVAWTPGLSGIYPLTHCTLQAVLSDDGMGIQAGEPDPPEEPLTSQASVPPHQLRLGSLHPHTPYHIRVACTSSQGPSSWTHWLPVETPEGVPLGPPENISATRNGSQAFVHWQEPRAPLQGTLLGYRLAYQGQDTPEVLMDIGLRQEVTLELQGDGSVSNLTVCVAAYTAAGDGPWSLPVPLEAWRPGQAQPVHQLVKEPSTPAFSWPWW
Assay: ELISA, 1:3 dilution
One number for each entry.

# Binder, Experimental value
data = [
    ("HC-W110N (antibody, V domains shown) VH: EVQLVQSGAEVKKPGATVKISCKVSGYSFTGHTMNWIRQPPGKGLEWIGLIKPSNGGTSYNQKFKGRVTISADKSISTAYLQWSSLKASDTAMYYCAHGHYESYFAMDYNGQGTLVTVSS VL: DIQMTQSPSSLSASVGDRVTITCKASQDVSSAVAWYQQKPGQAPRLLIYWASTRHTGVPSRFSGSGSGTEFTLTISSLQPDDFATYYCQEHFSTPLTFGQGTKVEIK", 4.3),
]

# evaluate next
For reference, reported Affinity ELISA CPE mutant ratio (1:3, pH 6.0/7.4) for HC-S103M (antibody, V domains shown) VH: EVQLVQSGAEVKKPGATVKISCKVSGYSFTGHTMNWIRQPPGKGLEWIGLIKPSNGGTSYNQKFKGRVTISADKSISTAYLQWSSLKASDTAMYYCAHGHYEMYFAMDYWGQGTLVTVSS VL: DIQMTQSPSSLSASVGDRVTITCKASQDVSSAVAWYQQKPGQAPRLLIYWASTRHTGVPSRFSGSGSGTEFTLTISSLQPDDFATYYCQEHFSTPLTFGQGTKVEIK stands at 1.78
